Data origin, for the record: paper PMC11996885

Biological target: T1, full-length FGFR2-BICC1 on NIH3T3 cells (Homo sapiens, UniProt P21802-3, chimera)
T1 construct: FGFR2 part of the fusion, from its N-terminus with the extracellular domain to the breakpoint; the printed Gln361 fits the IIIb isoform (FGFR2b); BICC1 part of the fusion; also called FL; source: NIH3T3, transfected, on cells
T1 sequence (P21802 whole entry, looked up, change not shown, the tested form may be a part, canonical isoform): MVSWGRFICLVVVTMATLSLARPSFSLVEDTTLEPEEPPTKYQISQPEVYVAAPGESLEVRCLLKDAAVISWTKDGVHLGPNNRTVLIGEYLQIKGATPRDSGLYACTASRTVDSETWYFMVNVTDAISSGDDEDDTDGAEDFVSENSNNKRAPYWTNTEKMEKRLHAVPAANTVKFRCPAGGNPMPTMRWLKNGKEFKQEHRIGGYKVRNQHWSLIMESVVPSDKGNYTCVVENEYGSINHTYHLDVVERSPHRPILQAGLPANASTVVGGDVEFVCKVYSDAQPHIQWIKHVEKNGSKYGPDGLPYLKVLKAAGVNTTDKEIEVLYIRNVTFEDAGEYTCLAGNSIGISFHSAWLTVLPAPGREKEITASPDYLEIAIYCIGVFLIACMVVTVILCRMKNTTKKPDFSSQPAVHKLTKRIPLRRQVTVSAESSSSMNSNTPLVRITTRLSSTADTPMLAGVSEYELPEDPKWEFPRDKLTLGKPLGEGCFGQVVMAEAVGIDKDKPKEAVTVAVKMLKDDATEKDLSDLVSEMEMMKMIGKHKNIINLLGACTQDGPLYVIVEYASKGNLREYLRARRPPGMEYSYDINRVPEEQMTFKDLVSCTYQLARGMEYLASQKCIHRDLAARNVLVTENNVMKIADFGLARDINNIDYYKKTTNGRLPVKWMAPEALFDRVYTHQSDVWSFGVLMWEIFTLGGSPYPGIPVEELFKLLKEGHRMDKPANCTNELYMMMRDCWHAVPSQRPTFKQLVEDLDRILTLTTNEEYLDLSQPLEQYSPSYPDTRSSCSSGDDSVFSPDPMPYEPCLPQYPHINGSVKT
Test: flow cytometry on cells; NIH3T3 cells expressing full-length FGFR2-BICC1 or its D1, D2, D3 or D2+D3 deletion variants, parental antibody A-F at 10 μg/mL in 1x PBS (Mg2+ free), 1.5 hours at room temperature; anti-human IgG secondary antibody
Details: one partner purified

Binder	binding result
FGFR2 parental antibody F (antibody, V domains shown, heavy chain of antibody F, IgG1; light chain of antibody F; IgG1; One of the six parental antibodies is the parental antibody of bemarituzumab; also called Ab-F; copies: 2 + 2) VH: QVQLVQSGAEVKKPGESLKISCKGSGYSFTNYYIHWVRQMPGKGLEWMGAIYPDNSDTTYSPSFQGQVTISADKSISTAYLQWSSLKASDTAMYYCARGADIWGQGTLVTVSS VL: DIQMTQSPSSLSASVGDRVTITCRASQDIDPYLSNWYQQKPGKAPKLLIYDASNLQSGVPSRFSGSGSGTDFTLTISSLQPEDFATYYCQQTTSHPYTFGQGTKVEIK	binds
